test system: MALME-3M melanoma; assay: NCI-60 one-dose screen, 48 h; settings: 10 µM unless noted
About 83,000 compounds went through this panel and 20% of them were active in at least one assay; those are over-represented in the sample as a whole. Active and inactive are the calls of the source. The calls were made as follows: active = growth percent below 10; inactive = the rest.
Outcomes you can answer with include only these: 1 (yes) for active, 0 (no) for inactive

Take a look at these entries with their results.
Lab log entry: `CC1=C2C(=O)[C@H]3[C@@H](CC=C4C[C@@H](O)CC[C@@]43C)[C@@H]2CC[C@]12O[C@@H]1C[C@H](C)CN[C@H]1[C@H]2C` — outcome as called in the assay? 0 (no)

What was the test verdict on `COc1ccc(OC)c(/C=C/[N+](=O)[O-])c1` ? 0 (no)

Called result for `Cc1cc(N=Nc2ccccc2C)ccc1N` 0 (no)

Entry `NCCc1ccc(OCc2ccccc2)c(OCc2ccccc2)c1` : call = ? 0 (no)

More entries:
Query: recorded result category for Cc1c(N)nc([C@H](CC(N)=O)NC[C@H](N)C(N)=O)nc1C(=O)N[C@H](C(=O)N[C@H](C)[C@@H](O)[C@H](C)C(=O)N[C@H](C(=O)NCCc1nc(-c2nc(C(=O)NCCC[S+](C)C)cs2)cs1)[C@@H](C)O)C(OC1OC(CO)C(O)C(O)C1OC1OC(CO)C(O)C(OC(N)=O)C1O)c1cnc[nH]1 (stereo partly drawn) in this test 0 (no)

State the result this test recorded for COC1CC(CC2CCC(C)C(C(C)C(=O)O)O2)OC2(OC(C)(C3CCC(C)(C4OC(C5OC(O)(CO)C(C)CC5C)CC4C)O3)CC2C)C1C (stereo not drawn) . 1 (yes)

How did this test come out for CC[C@@]1(O)C[C@H](OC2CC(N(C)C)C(O)C(C)O2)c2c(O)c3c(c(O)c2[C@H]1OC1CC(N(C)C)C(O)C(C)O1)C(=O)c1cccc(O)c1C3=O (stereo partly drawn) ? 1 (yes)

State the result this test recorded for CCC(=O)OC1CCn2c1nc1c2C(=O)C(C)=C(N2CC2)C1=O (stereo not drawn) . 1 (yes)
